B1: TRAF3IP2 (parent)
chain: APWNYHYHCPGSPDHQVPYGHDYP

- Variants of: B1
- ASSAY NOTES: protein stability index of a GFP-peptide fusion (GPS, HEK-293T) (PSI 1-6); higher = more stable;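 also: lentivirally expressed fusions sorted by FACS into six bins by GFP to DsRed ratio, PSI derived from sequencing read proportions per bin multiplied by bin number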
- ASSAY SETUP: c terminus: a fixed tail appended
The label depends only on protein stability index: Criterion met if it is at least 2, Criterion not met if it is smaller.

Observe how each entry below is paired with its result.
S12G :: Criterion met
V17D :: Criterion met
G11N :: Criterion not met

Moving on to another variant below.
Evaluate W3G : protein stability index at minimum 2?
Criterion met
